Value source: paper PMC9911399

Target: T1, RBFOX1 RRM (Homo sapiens, UniProt Q9NWB1 109-208)
T1 sequence: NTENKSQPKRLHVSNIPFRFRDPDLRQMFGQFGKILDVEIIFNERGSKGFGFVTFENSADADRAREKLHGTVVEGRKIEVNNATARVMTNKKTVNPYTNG
Experiment: EMSA; HiTS-Eq, 1 nM pool, 10 min; buffer printed only for the single-RNA assays: 10 mM Tris pH 7.5, 150 mM NaCl, 3.4 mM EDTA, 0.001% NP-40, 30 C
Conditions: tags: His6 N-terminal (pET28a); label: 5' 32P
Over roughly 16,000 sequences, “ka relative to ugcaugu” has its median near 0.0091; the highest 2% begin near 0.032. This excerpt belongs to a sample that is enriched for the highest values.
Listed here are binders together with their documented binding signal.

Binder: UAGCACG (DNA:RNA) RNA: GGGAGACCGGAAUUCAGAUUGUCCUAGCACGUUAAAUCCCGUCGUAGCCACCA DNA 1: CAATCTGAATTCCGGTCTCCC DNA 2: TGGTGGCTACGACGGGATT
Result value: 0.0464 KA relative to UGCAUGU

Binder: UUGCACC (DNA:RNA) RNA: GGGAGACCGGAAUUCAGAUUGUCCUUGCACCUUAAAUCCCGUCGUAGCCACCA DNA 1: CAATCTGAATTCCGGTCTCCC DNA 2: TGGTGGCTACGACGGGATT
Result value: 0.0149 KA relative to UGCAUGU

Binder: GGGGGGG (DNA:RNA) RNA: GGGAGACCGGAAUUCAGAUUGUCCGGGGGGGUUAAAUCCCGUCGUAGCCACCA DNA 1: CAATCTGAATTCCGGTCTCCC DNA 2: TGGTGGCTACGACGGGATT
Result value: 0.0247 KA relative to UGCAUGU

Binder: UAGCACC (DNA:RNA) RNA: GGGAGACCGGAAUUCAGAUUGUCCUAGCACCUUAAAUCCCGUCGUAGCCACCA DNA 1: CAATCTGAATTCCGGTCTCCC DNA 2: TGGTGGCTACGACGGGATT
Result value: 0.0118 KA relative to UGCAUGU

Binder: AUUAGUA (DNA:RNA) RNA: GGGAGACCGGAAUUCAGAUUGUCCAUUAGUAUUAAAUCCCGUCGUAGCCACCA DNA 1: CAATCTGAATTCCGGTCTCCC DNA 2: TGGTGGCTACGACGGGATT
Result value: 0.00672 KA relative to UGCAUGU

Given the entry UUGCAGA (DNA:RNA) RNA: GGGAGACCGGAAUUCAGAUUGUCCUUGCAGAUUAAAUCCCGUCGUAGCCACCA DNA 1: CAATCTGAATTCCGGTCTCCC DNA 2: TGGTGGCTACGACGGGATT , report its measured binding signal.
0.018 KA relative to UGCAUGU

Quick one: AUGCACC (DNA:RNA) RNA: GGGAGACCGGAAUUCAGAUUGUCCAUGCACCUUAAAUCCCGUCGUAGCCACCA DNA 1: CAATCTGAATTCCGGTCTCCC DNA 2: TGGTGGCTACGACGGGATT
0.0115 KA relative to UGCAUGU

Quick one: GUCGGGG (DNA:RNA) RNA: GGGAGACCGGAAUUCAGAUUGUCCGUCGGGGUUAAAUCCCGUCGUAGCCACCA DNA 1: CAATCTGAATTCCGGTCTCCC DNA 2: TGGTGGCTACGACGGGATT
0.0181 KA relative to UGCAUGU
